Where do the numbers come from? From patent US10392620B2.

Test system: Zymoseptoria tritici (SEPTTR-184)
Test: Efficacy of target gene fragments (MgCytB dsRNA tiles) on wheat plants, SEPTTR-184
Type: in vivo
Parameters: scale not given here
Conditions: 50 ppm; 3DC (curative)
measure_name: Average of 2 trials SEPTTR-184 3DC
Respond numerically, and do not add a unit to the figure.

What the record says about MgCytB-T3: 116 bp dsRNA of Zymoseptoria CytB region 3, location 279-394 (SEQ ID NO:6) (nucleic acid, listed as Zymoseptoria tritici, long dsRNA, chemistry not given here, further chemistry not given here) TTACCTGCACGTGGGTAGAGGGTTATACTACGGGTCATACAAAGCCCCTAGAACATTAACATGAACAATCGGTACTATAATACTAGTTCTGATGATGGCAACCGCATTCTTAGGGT : Average of 2 trials SEPTTR-184 3DC is 81

What the record says about MgCytB-T7: 221 bp dsRNA of Zymoseptoria CytB region T7, location 947-1167 (SEQ ID NO:10) (nucleic acid, listed as Zymoseptoria tritici, complementary strand of dsRNA) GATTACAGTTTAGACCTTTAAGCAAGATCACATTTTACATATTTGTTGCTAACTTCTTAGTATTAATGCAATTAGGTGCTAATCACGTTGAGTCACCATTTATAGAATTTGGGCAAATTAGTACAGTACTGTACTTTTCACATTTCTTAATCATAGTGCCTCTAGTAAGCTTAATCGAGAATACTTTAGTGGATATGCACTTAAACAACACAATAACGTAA : Average of 2 trials SEPTTR-184 3DC is 73

What the record says about MgCytB-T2: 203 bp dsRNA of Zymoseptoria CytB region 2, location 603-805 (SEQ ID NO:5) (nucleic acid, listed as Zymoseptoria tritici, complementary strand of dsRNA) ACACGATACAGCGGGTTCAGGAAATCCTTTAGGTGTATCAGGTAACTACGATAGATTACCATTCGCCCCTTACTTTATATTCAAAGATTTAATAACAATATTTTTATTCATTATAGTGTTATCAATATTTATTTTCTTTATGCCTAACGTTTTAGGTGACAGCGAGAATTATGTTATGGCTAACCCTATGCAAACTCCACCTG : Average of 2 trials SEPTTR-184 3DC is 85
